Test system: Hs578T complex spheroid growth, percent test/control
assay-summary: Anticancer human tumor Hs578T cell line growth inhibition [AhR];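 further: luminescent viability signal as a proxy for spheroid growth; spheroids exposed to agents for one week after three days of growth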
assay-context: second compound 3.16 µM; first compound 0.0316 µM; hits give low values
endpoint-name: viability, T/C (%)

molecule	endpoint-name	observed-measurement
CC[C@@]1(O)C(=O)OCc2c1cc1n(c2=O)Cc2cc3c(CN(C)C)c(O)ccc3nc2-1 + Cc1cncc(-c2nc(NCCc3c[nH]c4ccccc34)c3ncn(C(C)C)c3n2)c1	viability, T/C	44.5
COc1cccc2c1C(=O)c1c(O)c3c(c(O)c1C2=O)CC(O)(C(=O)CO)CC3OC1CC(N)C(O)C(C)O1 (stereo not drawn) + CC(CO)NC(=O)c1cc(-c2ccc(Cl)cc2)nn(-c2cnn(C)c2)c1=O	viability, T/C	88.6
CC1COCCN1c1cc(-c2ccnn2C)c2ccnc(-c3ccn[nH]3)c2n1 (stereo not drawn) + Cc1ccccc1N=Nc1ccc(NC(=O)c2ccnn2C)c(C)c1	viability, T/C	89.7
